target: recombinant soluble homotrimeric HA of A/northern shoveler/California/HKWF115/07 (H6) (Influenza A virus A/northern shoveler/California/HKWF115/2007(H6N1)); assay: HA microarray, BCC supernatant; settings: remark: other sources report otherwise
Readout: Trimeric HA Binding: RLU (RLU)

Binder: TCN-563 (5237_B21) (antibody, V domains shown) VH: QVQLAQSGAEVKRPGSSVKVSCTASGGIFRKNAISWVRQAPGQGLEWMGGIIAVFNTANYAQKFQGRVKITADESGNTAYMELSSLRSDDTAVYYCASHPKYFYGSGSYPDFWGQGTLVTVSS VL: QSALTQPRSVSGSPGQSVTISCTGSSSDVGASNSVSWYQQHPGKAPKLVIYDVTERPSGVPHRFSGSKSGNTASLTVSGLQPEDEADYFCCAYGGKYLVVFGGGTKVTVL
Readout: Trimeric HA Binding: RLU
Measurement Unit: RLU
Recorded Result: 27300
